system: T1, human high affinity trimeric IL-2 receptor (CD25/CD122/CD132) (human, UniProt P01589 22-272; P14784 27-551; P31785 23-369)
T1 sequence 1: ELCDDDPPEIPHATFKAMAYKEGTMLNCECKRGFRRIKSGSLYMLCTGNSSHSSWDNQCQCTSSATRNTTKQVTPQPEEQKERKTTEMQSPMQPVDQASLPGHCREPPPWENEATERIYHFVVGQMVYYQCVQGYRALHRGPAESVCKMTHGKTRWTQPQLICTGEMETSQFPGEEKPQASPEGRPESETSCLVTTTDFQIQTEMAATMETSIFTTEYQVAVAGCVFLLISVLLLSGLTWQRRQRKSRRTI
T1 sequence 2: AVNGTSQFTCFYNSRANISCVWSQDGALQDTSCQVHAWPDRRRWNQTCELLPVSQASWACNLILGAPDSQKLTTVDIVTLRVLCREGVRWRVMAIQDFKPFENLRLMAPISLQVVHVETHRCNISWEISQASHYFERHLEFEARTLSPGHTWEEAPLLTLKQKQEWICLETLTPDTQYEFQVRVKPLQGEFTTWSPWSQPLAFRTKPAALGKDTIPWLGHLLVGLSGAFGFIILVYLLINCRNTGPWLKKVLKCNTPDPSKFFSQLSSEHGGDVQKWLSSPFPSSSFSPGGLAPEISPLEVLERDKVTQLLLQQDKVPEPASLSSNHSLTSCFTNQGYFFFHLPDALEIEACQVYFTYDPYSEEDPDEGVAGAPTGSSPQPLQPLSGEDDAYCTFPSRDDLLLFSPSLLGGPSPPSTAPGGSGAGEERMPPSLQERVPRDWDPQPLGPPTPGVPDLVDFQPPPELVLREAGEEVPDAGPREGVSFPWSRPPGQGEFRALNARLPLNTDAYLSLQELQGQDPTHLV
T1 sequence 3: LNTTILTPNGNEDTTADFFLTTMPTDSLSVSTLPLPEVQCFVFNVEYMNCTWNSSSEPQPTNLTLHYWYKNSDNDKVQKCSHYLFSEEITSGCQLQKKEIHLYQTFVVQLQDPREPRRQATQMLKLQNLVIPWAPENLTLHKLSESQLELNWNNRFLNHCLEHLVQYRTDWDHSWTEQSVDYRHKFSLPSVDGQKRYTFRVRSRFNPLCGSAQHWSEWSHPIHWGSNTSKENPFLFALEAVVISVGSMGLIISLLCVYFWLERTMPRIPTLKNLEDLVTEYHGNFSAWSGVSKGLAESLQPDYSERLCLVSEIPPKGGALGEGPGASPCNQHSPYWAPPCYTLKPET
assay-comment: cell-based or functional assay
measured-endpoint: pSTAT5 ratio YT CD25/YT, dilution factor 32, upper table
Give bare numbers.

Provide the reported pSTAT5 ratio YT CD25/YT, dilution factor 32, upper table of each entry below, same order.
1. MEH (ligand) cytokine: APTSSSTKKTQLQLEHLMLDLEMILNGINNYKNPKLTRMLTFKFYMPKKATELKHLQCLEEELKPLEEVLNLAQSKNFHLRPRDLISNINVIVLELKGSETTFMCEYADETATIVEFLNRWITFCHSIISTLT
2. hIL2 mutein REE (L18R, Q22E, Q126E) (ligand) APTSSSTKKTQLQLEHLRLDLEMILNGINNYKNPKLTRMLTFKFYMPKKATELKHLQCLEEELKPLEEVLNLAQSKNFHLRPRDLISNINVIVLELKGSETTFMCEYADETATIVEFLNRWITFCESIISTLT
3. KEH (ligand) cytokine: APTSSSTKKTQLQLEHLKLDLEMILNGINNYKNPKLTRMLTFKFYMPKKATELKHLQCLEEELKPLEEVLNLAQSKNFHLRPRDLISNINVIVLELKGSETTFMCEYADETATIVEFLNRWITFCHSIISTLT
4. EEH (ligand) cytokine: APTSSSTKKTQLQLEHLELDLEMILNGINNYKNPKLTRMLTFKFYMPKKATELKHLQCLEEELKPLEEVLNLAQSKNFHLRPRDLISNINVIVLELKGSETTFMCEYADETATIVEFLNRWITFCHSIISTLT

Result:
1. 1.8
2. 13.5
3. 1.6
4. 14.7
